System: 377384-186-R-J1-PDC complex spheroid viability
Assay: Anticancer human tumor 377384-186-R-J1-PDC patient-derived pancreatic carcinoma cell line growth inhibition [RAS]; active means viability on the fitted dose curve at most 10% of control; inactive means the rest
Settings: second compound 1 µM; first compound 0.00949 µM
Excerpt: RAS pathway inhibitors in Combinations in Complex Spheroids A high-throughput screen of multi-cell type tumor spheroids was designed to identify active combinations of RAS pathway inhibitors and targeted small molecules. Complex spheroids include a stromal component modeled by human endothelial cells (HUVEC) and fibroblasts modeled by human mesenchymal stem cells (MSCs). […] Compounds. […] If the clinical Cmax for an agent had not been determined, the highest concentration tested was 10 microM. […]
Outcome codes: active, inactive

molecule | discrete_label
CC1(C)CCC(Nc2ncc(C(F)(F)F)c(-c3c[nH]c4c(P(C)(C)=O)c(C#N)ccc34)n2)CN1 (centres undefined) + C=CC(=O)N1CCN(c2nc(OCC3CCCN3C)nc3c(F)c(-c4nc(N)cc(C)c4C(F)(F)F)c(Cl)cc23)C(C)C1 | inactive
CCc1c2c(nc3ccc(O)cc13)-c1cc3c(c(=O)n1C2)COC(=O)[C@]3(O)CC + C#Cc1c(F)ccc2cc(O)cc(-c3ncc4c(N5CC6CCC(C5)N6)nc(OCC56CCCN5CC(F)C6)nc4c3F)c12 | active
CCc1c2c(nc3ccc(O)cc13)-c1cc3c(c(=O)n1C2)COC(=O)[C@]3(O)CC + C=CC(=O)N1CCN(c2nc(OCC3CCCN3C)nc3c(F)c(-c4nc(N)cc(C)c4C(F)(F)F)c(Cl)cc23)C(C)C1 | inactive
CC1(C)CCC(Nc2ncc(C(F)(F)F)c(-c3c[nH]c4c(P(C)(C)=O)c(C#N)ccc34)n2)CN1 (centres undefined) + C#Cc1c(F)ccc2cc(O)cc(-c3ncc4c(N5CC6CCC(C5)N6)nc(OCC56CCCN5CC(F)C6)nc4c3F)c12 | active

====

Test system: 377384-186-R-J1-PDC complex spheroid viability
Test: Anticancer human tumor 377384-186-R-J1-PDC cell line growth inhibition [RAS];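 further: spheroids exposed to compounds for seven days before readout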
Details: second compound 0.003 µM; first compound 3.16 µM; hits give low values
Item-by-item account of viability, T/C
measurement_name: viability, T/C (%)

molecule | numeric_readout
CC(=O)OC12COC1CC(O)C1(C)C(=O)C(O)C3=C(C)C(OC(=O)C(O)C(NC(=O)OC(C)(C)C)c4ccccc4)CC(O)(C(OC(=O)c4ccccc4)C21)C3(C)C (configuration not stated) + CCn1c(-c2cc(N3CCN(C)CC3)cnc2C(C)OC)c2c3cc(ccc31)-c1csc(n1)CC(NC(=O)C1CC1C)C(=O)N1CCCC(N1)C(=O)OCC(C)(C)C2 | 2.97
CCC(CC)c1cc(NC2CCC(N)C2)n2nccc2n1 (configuration not stated) + CCn1c(-c2cc(N3CCN(C)CC3)cnc2C(C)OC)c2c3cc(ccc31)-c1csc(n1)CC(NC(=O)C1CC1C)C(=O)N1CCCC(N1)C(=O)OCC(C)(C)C2 | 0.83

====

Test system: 377384-186-R-J1-PDC complex spheroid viability
Assay: Anticancer human tumor 377384-186-R-J1-PDC cell line growth inhibition [RAS]; active means viability on the fitted dose curve at most 10% of control; inactive means the rest;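 further: spheroids exposed to compounds for seven days before readout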
Conditions: second compound 0.1 µM; first compound 0.0316 µM
Classes used: 1 = active, 0 = inactive

molecule | test_system | discrete_label
CC1(O)CCCC1n1c(=O)c(C(F)F)cc2cnc(NC3CCN(S(C)(=O)=O)CC3)nc21 (stereo not given) + C=CC(=O)N1CCN(c2nc(OCC3CCCN3C)nc3c(F)c(-c4nc(N)cc(C)c4C(F)(F)F)c(Cl)cc23)C(C)C1 | 377384-186-R-J1-PDC complex spheroid viability | 0
CCN1CCN(Cc2ccc(Nc3ncc(F)c(-c4cc(F)c5nc(C)n(C(C)C)c5c4)n3)nc2)CC1 + C=CC(=O)N1CCN(c2nc(OCC3CCCN3C)nc3c(F)c(-c4nc(N)cc(C)c4C(F)(F)F)c(Cl)cc23)C(C)C1 | 377384-186-R-J1-PDC complex spheroid viability | 0
CC(Nc1ccc2c(c1)OCCn1cc(N3C(=O)OCC3C(F)F)nc1-2)C(N)=O (stereo not given) + C=CC(=O)N1CCN(c2nc(OCC3CCCN3C)nc3c(F)c(-c4nc(N)cc(C)c4C(F)(F)F)c(Cl)cc23)C(C)C1 | 377384-186-R-J1-PDC complex spheroid viability | 0
Nc1ccn(C2OC(CO)C(O)C2(F)F)c(=O)n1 (stereo not given) + C=CC(=O)N1CCN(c2nc(OCC3CCCN3C)nc3c(F)c(-c4nc(N)cc(C)c4C(F)(F)F)c(Cl)cc23)C(C)C1 | 377384-186-R-J1-PDC complex spheroid viability | 0
NC1c2ccccc2OC12CCN(c1cnc3c(N4CCCc5ncccc54)n[nH]c3n1)CC2 (stereo not given) + C#Cc1c(F)ccc2cc(O)cc(-c3ncc4c(N5CC6CCC(C5)N6)nc(OCC56CCCN5CC(F)C6)nc4c3F)c12 | 377384-186-R-J1-PDC complex spheroid viability | 1
CC(C)NCC(C(=O)N1CCN(c2ncnc3c2C(C)CC3O)CC1)c1ccc(Cl)cc1 (stereo not given) + C=CC(=O)N1CCN(c2nc(OCC3CCCN3C)nc3c(F)c(-c4nc(N)cc(C)c4C(F)(F)F)c(Cl)cc23)C(C)C1 | 377384-186-R-J1-PDC complex spheroid viability | 0
C=CC(=O)Nc1cc(Nc2nccc(-c3cn(C)c4ccccc34)n2)c(OC)cc1N(C)CCN(C)C + C#Cc1c(F)ccc2cc(O)cc(-c3ncc4c(N5CC6CCC(C5)N6)nc(OCC56CCCN5CC(F)C6)nc4c3F)c12 | 377384-186-R-J1-PDC complex spheroid viability | 1
O=C(c1ccc(F)c(F)c1Nc1ccc(I)cc1F)N1CC(O)([C@@H]2CCCCN2)C1 + C#Cc1c(F)ccc2cc(O)cc(-c3ncc4c(N5CC6CCC(C5)N6)nc(OCC56CCCN5CC(F)C6)nc4c3F)c12 | 377384-186-R-J1-PDC complex spheroid viability | 1
C[C@@H](NC(=O)c1ncnc(N)c1Cl)c1ncc(C(=O)Nc2cc(C(F)(F)F)c(Cl)cn2)s1 + C=CC(=O)N1CCN(c2nc(OCC3CCCN3C)nc3c(F)c(-c4nc(N)cc(C)c4C(F)(F)F)c(Cl)cc23)C(C)C1 | 377384-186-R-J1-PDC complex spheroid viability | 0
C[C@@H](NC(=O)c1ncnc(N)c1Cl)c1ncc(C(=O)Nc2cc(C(F)(F)F)c(Cl)cn2)s1 + C#Cc1c(F)ccc2cc(O)cc(-c3ncc4c(N5CC6CCC(C5)N6)nc(OCC56CCCN5CC(F)C6)nc4c3F)c12 | 377384-186-R-J1-PDC complex spheroid viability | 0
